Attribute: growth
Test system: HCC-2998 colon
Test: NCI-60 one-dose screen, 48 h (100 = growth as untreated, 0 = no growth, -100 = all killed)
Settings: 10 µM unless noted
Procedure: Growth inhibition of the HCC-2998 human tumor cell line is measured as a screen for anti-cancer activity. Cells are grown in 96 well plates and exposed to the test compound for 48 hours. Compounds are tested at a single concentration, which is 10^-5 M for most compounds. The reported endpoint is percent growth (GI% or GIPRCNT), where numbers from 0 - 100% represent growth inhibition, and numbers from -100% - 0 represent cell death. For example, a value of 40 represents 60% growth inhibition. […]
About 83,000 compounds went through this panel and 20% of them were active in at least one assay; those are over-represented in the sample as a whole. Calls of active or inactive are those of the source. Rule for the calls: active = growth percent below 10; inactive = the rest.
measured-quantity: growth

{"columns": ["compound", "measured-quantity", "measured-result"],
 "data": [
  ["N#Cc1c2c(nn(-c3ccccc3)c1=O)C(O)=C([N+](=O)[O-])C(c1ccccc1)C2 (stereo not given)", "growth", "101% (inactive)"],
  ["CCc1ccccc1-n1c(-c2ccc(Cl)cc2)cc(-c2ccc(OC)cc2)c(C#N)c1=O", "growth", "109% (inactive)"],
  ["CNC(=O)c1cc(Oc2ccc3nc(Nc4ccc(Cl)c(C(F)(F)F)c4)ccc3c2)ccn1", "growth", "65.5% (inactive)"],
  ["Cc1ccc2[nH]c(=O)c3c(c2c1)OC(N)=C(C#N)C31c2cc(Br)ccc2-c2ccc(Br)cc21", "growth", "70.5% (inactive)"],
  ["Cc1ccc(S(=O)(=O)n2cc(CNc3ccc(N4CCOCC4=O)cc3)c3ccccc32)cc1", "growth", "97.8% (inactive)"]
]}

These data points were gathered from PubChem BioAssay (NCI).
